# System: Internal ribosome entry site (IRES)
# method-summary: Binding affinity to HCV 5'-Alexa488-labeled IRES domain 3 loop RNA at 20 degC after overnight incubation by fluorescence assay
# Set-up: species or system Hepacivirus hominis
endpoint-name: Kd

molecule: NCCCC[C@H](N)C(=O)O [LYSINE]
Kd: Not Active
--
molecule: NCCCCCC(=O)NCC(=O)Nc1nc2ccccc2[nH]1
Kd: Not Active
--
molecule: NCC(=O)NCC(=O)Nc1nc2ccccc2[nH]1
Kd: Not Active
--
molecule: NCCCC(=O)NCC(=O)Nc1nc2ccccc2[nH]1
Kd: Not Active

Consider now this further molecule.
# molecule CC(=O)Nc1nccc(-c2cccc(N)c2)n1 ; its Kd = Not Active

====

# System: Internal ribosome entry site (IRES)
# method-summary: Binding affinity to HCV 5'-Alexa488-labeled IRES domain 3 loop RNA assessed as change in entropy after overnight incubation by fluorescence assay
# details: Hepacivirus hominis
endpoint-name: TdeltaS (kcal/mol)

Past entries and their recorded results:
compound: CC(=O)Nc1nccc(-c2cccc(NC(=O)CCCCCN)c2)n1
recorded-value: 5.88
--
compound: CC(=O)Nc1nccc(-c2cccc(NC(=O)CCCN(C)C)c2)n1
recorded-value: 4.11
--
compound: CC(=O)Nc1nccc(-c2cccc(NC(=O)[C@@H](N)Cc3c[nH]cn3)c2)n1
recorded-value: -5.4

(1) CC(=O)Nc1nccc(-c2cccc(NC(=O)[C@@H](N)CCCCN)c2)n1
(2) CC(=O)Nc1nccc(-c2cccc(NC(=O)[C@@H](N)CN)c2)n1
Query: Please compare: 1 and 2 . Report which one has the smaller TdeltaS value. Identify your pick by its label.
Response: 2
(2: -2.99 kcal/mol, 1: 1.03 kcal/mol)

(A) NCC1O[C@H](O[C@H]2[C@@H](O)[C@H](O[C@H]3[C@H](O)[C@@H](N)C[C@@H](N)[C@@H]3O[C@H]3O[C@H](CN)[C@@H](O)[C@H](O)[C@H]3N)O[C@@H]2CO)[C@H](N)[C@@H](O)[C@@H]1O (some centres not stated)
(B) CC(=O)Nc1nccc(-c2cccc(NC(=O)CCCCCNC(=O)[C@@H](N)CN)c2)n1
Query: Of A and B , which one carries the higher reported TdeltaS? Identify your pick by its label.
Response: B
(B: -1.74 kcal/mol, A: -2.8 kcal/mol)

====

# measurement-target: Internal ribosome entry site (IRES)
# method-summary: Binding affinity to HCV 5'-Alexa488-labeled IRES domain 3 loop RNA at 15 degC after overnight incubation by fluorescence assay
# Design: species or system Hepacivirus hominis
# details: read-out: Kd
endpoint-name: Kd (µM)

Past entries and their recorded results:
compound: CC(=O)Nc1nccc(-c2cccc(NC(=O)CCCN)c2)n1
Kd [µM]: 159
//
compound: CC(=O)Nc1nccc(-c2cccc(NC(=O)CCCCCNC(=O)[C@@H](N)CN)c2)n1
Kd [µM]: 14.2
//
compound: CC(=O)Nc1nccc(-c2cccc(NC(=O)[C@@H](N)Cc3c[nH]cn3)c2)n1
Kd [µM]: 15
//
compound: NCC1O[C@H](O[C@H]2[C@@H](O)[C@H](O[C@H]3[C@H](O)[C@@H](N)C[C@@H](N)[C@@H]3O[C@H]3O[C@H](CN)[C@@H](O)[C@H](O)[C@H]3N)O[C@@H]2CO)[C@H](N)[C@@H](O)[C@@H]1O (stereo partly specified)
Kd [µM]: 6.5
//
compound: CC(=O)Nc1nccc(-c2cccc(NC(=O)CCCCCN)c2)n1
Kd [µM]: 11.4
//
compound: CC(=O)Nc1nccc(-c2cccc(NC(=O)CN)c2)n1
Kd [µM]: 438

(I) CC(=O)Nc1nccc(-c2cccc(NC(=O)c3nccnc3N)c2)n1
(II) CC(=O)Nc1nccc(-c2cccc(NC(=O)CCCN(C)C)c2)n1
(III) CC(=O)Nc1nccc(-c2cccc(NC(=O)c3cccnc3)c2)n1
(IV) CC(=O)Nc1nccc(-c2cccc(NC(=O)[C@@H](N)CCCCN)c2)n1
(V) CC(=O)Nc1nccc(-c2cccc(NC(=O)[C@@H](N)CN)c2)n1
Query: Rank the 5 compounds: largest Kd first, smallest last. Put the labels in the requested order and write them down.
Response: III, I, II, V, IV

====

# measurement-target: Internal ribosome entry site (IRES)
# method-summary: Binding affinity to HCV 5'-Alexa488-labeled IRES domain 3 loop RNA at 36 degC after overnight incubation by fluorescence assay
# Parameters: species or system Hepacivirus hominis
# details: read-out: Kd
endpoint-name: Kd (µM)

compound: CC(=O)Nc1nccc(-c2cccc(NC(=O)CCCCCNC(=O)[C@@H](N)CN)c2)n1
endpoint-name: Kd
recorded-value: 42.6

(I) CC(=O)Nc1nccc(-c2cccc(NC(=O)CCCCCN)c2)n1
(II) CC(=O)Nc1nccc(-c2cccc(NC(=O)CCCN(C)C)c2)n1
(III) CC(=O)Nc1nccc(-c2cccc(NC(=O)[C@@H](N)Cc3c[nH]cn3)c2)n1
Query: Arrange these 3 compounds in increasing order of Kd. Put the labels in the requested order and write them down.
Response: I, II, III
(I: 11.4 µM, II: 32.5 µM, III: 262 µM)

====

# measurement-target: Internal ribosome entry site (IRES)
# method-summary: Binding affinity to HCV IRES 5'Alexa488-GCCGAGGAGUGUUGGGUCGCGCAAGGC-3' RNA at 20 degC after overnight incubation by fluorescence assay
# Parameters: species or system Hepacivirus hominis
# details: read-out: Kd
endpoint-name: Kd (µM)

(A) CC(=O)Nc1nccc(-c2cccc(NC(=O)[C@@H](N)CCCCN)c2)n1
(B) NCCCCCC(=O)NCC(=O)Nc1nc2ccccc2[nH]1
Query: Please compare: A and B . Report which one has the smaller Kd value. Identify your pick by its label.
Response: B
(B: 41.4 µM, A: 554 µM)

====

# measurement-target: Internal ribosome entry site (IRES)
# method-summary: Binding affinity to HCV 5'-Alexa488-labeled IRES domain 3 loop RNA at 20 degC after overnight incubation in presence of 50-fold excess of tRNA by fluorescence assay
# Design: species or system Hepacivirus hominis
pKd: −log10 of the molar value.
endpoint-name: pKd

(P) CC(=O)Nc1nccc(-c2cccc(NC(=O)CCCCCN)c2)n1
(Q) CC(=O)Nc1nccc(-c2cccc(NC(=O)[C@@H](N)CCCCN)c2)n1
Query: Of P and Q , which one carries the higher reported pKd? Identify your pick by its label.
Response: Q
(Q: 4.98, P: 4.77)

====

# System: Internal ribosome entry site (IRES)
# method-summary: Binding affinity to HCV 5'-Alexa488-labeled IRES domain 3 loop RNA assessed as gibbs free energy change after overnight incubation by fluorescence assay
# details: Hepacivirus hominis
endpoint-name: deltaG (kJ/mol)

compound: NCC1O[C@H](O[C@H]2[C@@H](O)[C@H](O[C@H]3[C@H](O)[C@@H](N)C[C@@H](N)[C@@H]3O[C@H]3O[C@H](CN)[C@@H](O)[C@H](O)[C@H]3N)O[C@@H]2CO)[C@H](N)[C@@H](O)[C@@H]1O (stereo partly drawn)
recorded-value: -28.1
--
compound: CC(=O)Nc1nccc(-c2cccc(NC(=O)CCCCCN)c2)n1
recorded-value: -27.7
--
compound: CC(=O)Nc1nccc(-c2cccc(NC(=O)CCCCCNC(=O)[C@@H](N)CN)c2)n1
recorded-value: -26.5

====

# measurement-target: Internal ribosome entry site (IRES)
# method-summary: Binding affinity to HCV 5'-Alexa488-labeled IRES domain 3 loop RNA at 20 degC after overnight incubation by fluorescence assay
# Parameters: species or system Hepacivirus hominis
# details: read-out: Kd
pKd: −log10 of the molar value.
endpoint-name: pKd

molecule-smiles: CC(=O)Nc1nccc(-c2cccc(NC(=O)CCCCCN)c2)n1
measurement-target: Internal ribosome entry site (IRES)
endpoint-name: pKd
recorded-value: 4.93

(A) CC(=O)Nc1nccc(-c2cccc(NC(=O)[C@@H](N)CN)c2)n1
(B) CC(=O)Nc1nccc(-c2cccc(NC(=O)CCCN(C)C)c2)n1
Query: Of A and B , which one carries the higher reported pKd? Identify your pick by its label.
Response: A
(A: 5.00, B: 4.43)

====

# measurement-target: Internal ribosome entry site (IRES)
# method-summary: Binding affinity to HCV 5'-Alexa488-labeled IRES domain 3 loop RNA at 36 degC after overnight incubation by fluorescence assay
# Design: species or system Hepacivirus hominis
# details: read-out: Kd
endpoint-name: Kd (µM)

compound: NCC1O[C@H](O[C@H]2[C@@H](O)[C@H](O[C@H]3[C@H](O)[C@@H](N)C[C@@H](N)[C@@H]3O[C@H]3O[C@H](CN)[C@@H](O)[C@H](O)[C@H]3N)O[C@@H]2CO)[C@H](N)[C@@H](O)[C@@H]1O (stereo partly drawn)
Kd (µM): 24.1

(P) CC(=O)Nc1nccc(-c2cccc(NC(=O)[C@@H](N)CN)c2)n1
(Q) CC(=O)Nc1nccc(-c2cccc(NC(=O)[C@@H](N)CCCCN)c2)n1
Query: Of P and Q , which one carries the higher reported Kd? Identify your pick by its label.
Response: P
(P: 30.1 µM, Q: 8.6 µM)
